Tested on: TK-10 renal
METHOD: NCI tumour cell line growth inhibition, 48 h
EXPERIMENTAL ENDPOINT: TGI

Below, each entry is followed by its recorded TGI result.
Query :: Report TGI for COC(=O)C1=C(C(=O)Nc2cccnc2Cl)N(c2ccc(OC)cc2[N+](=O)[O-])C(c2ccc(C)cc2)=CC1c1ccc(OC)cc1OC (centres undefined) please.
Result :: > 64.2 µM

Query :: Param item: `CN(C)c1ccc(/C=N\NC(=O)Nc2cccc3ccccc23)cc1`
Result :: 36.7 µM

Query :: Param item: CC(=O)O[C@H]1CCC2[C@@H]3CCC4Nc5oncc5C[C@]4(C)C3CC[C@@]21C (some centres undefined)
Result :: > 10 µM

Query :: Param item: `O=[N+]([O-])/C(C(Cl)=C(Cl)Cl)=C(/Nc1ccccc1)SCc1ccccc1`
Result :: 60.6 µM

Query :: Param item: `Cc1nc(-[n+]2nc(-c3ccncc3)nn2-c2ccccc2)sc1C`
Result :: 99.1 µM

Query :: Param item: `C=C(C(=O)O)[C@@H]1C[C@@H](OC(C)=O)[C@]2(C)CC/C=C(\C)CCC[C@H](C)[C@H](O)[C@@H]1O2`
Result :: > 100 µM

Query :: Param item: `CCCCSC1=N/C(=C\c2ccco2)C(Cl)=N1`
Result :: > 100 µM

Query :: Param item: `Cc1c(/C=N/NC(=O)c2ccc(Cl)cc2)c(=O)n(-c2ccccc2)n1C`
Result :: > 100 µM

***
Query :: Report TGI for `CCOP(=O)(COCCn1ncc(=O)[nH]c1=O)OCC` please.
Result :: > 100 µM

* * *

Test system: SN12C renal
METHOD: NCI tumour cell line growth inhibition, 48 h
EXPERIMENTAL ENDPOINT: TGI

Below, each entry is followed by its recorded TGI result.
Query :: Observed TGI on SN12C renal for CC(CO)CCNc1ncnc2c1ncn2CCC(=O)OC(C)(C)C (stereo not drawn) , please.
Result :: > 100 µM

Query :: Param item: `Cc1[nH]c(/C=C2\C(=O)Nc3ccccc32)c(C)c1CCC(=O)O`
Result :: > 100 µM

***
Query :: Observed TGI on SN12C renal for COc1c(OC(C)=O)c(OC(C)=O)cc2c1-c1ccc(SC)c(=O)cc1C(NC(C)=O)CC2 (stereo not drawn) , please.
Result :: > 100 µM

* * *

Kindly state TGI for each of the entries shown.
System: U251 CNS
METHOD: NCI tumour cell line growth inhibition, 48 h

Query :: Report TGI for [N-]=[N+]=NC1C(O)C(CO)OC1n1ccc(=O)[nH]c1=O (centres undefined) please.
Result :: > 875 µM

Give TGI for each listed item.
1. COc1ccc(C2OC(N)=C(C#N)C3=C2CCCC3C)cc1OC (centres undefined)
2. COc1ccc(OC)c(C(Cc2ccnc3ccccc23)Cc2ccnc3ccccc23)c1
3. O[C@H](c1cc(C(F)(F)F)nc2c(C(F)(F)F)cccc12)[C@@H]1CCCCN1
4. O=C(CCc1cc(O)ccc1O)OCCc1ccccc1
5. Cc1nc([N+](=O)[O-])cn1CC(=N)N
6. COc1ncc(-c2ccc3ncnc(Nc4cccc(Cl)c4)c3c2)cc1NS(=O)(=O)C1CC1

Result ::
> 100 µM
> 10 µM
8.38 µM
29.1 µM
> 100 µM
> 100 µM

Give TGI for each listed item.
1. COc1c[c]([Hg][O]C(C)=O)c(OC)c(NC(=O)CC(C)=O)[c]1[Hg][O]C(C)=O
2. Cc1c(O)c(OC2OC(CO)C(O)C(O)C2O)cc2c1CC[C@@H]1C2(C)C(=O)C[C@]2(C)[C@@H]([C@@](C)(O)C(=O)CCC(C)(C)O)[C@H](O)C[C@@]12C (some centres undefined)

Result ::
1: 27.8 µM; 2: > 100 µM

* * *

Kindly state TGI for each of the entries shown.
System: PC-3 prostate
METHOD: NCI tumour cell line growth inhibition, 48 h

Below, each entry is followed by its recorded TGI result.
Query :: Report TGI for S=C1SSC2N=CC=CC12 (configuration not stated) please.
Result :: > 100 µM

Query :: Param item: `Nc1nc(Cl)c(N)c(NCC2(CO)CCCC2)n1`
Result :: > 100 µM

Query :: Param item: `CCOP(=O)(COCCn1ncc(=O)[nH]c1=O)OCC`
Result :: > 100 µM

Query :: Param item: `N#CC1=C(Nc2ccccc2)SC=C(c2ccccc2)NC1=NCc1ccccc1`
Result :: > 100 µM

Query :: Param item: `CCn1sc2ccccc2c1=O`
Result :: 29.3 µM

Query :: Param item: CC(=O)N(CCc1ccccc1)C(C#N)c1ccccc1 (configuration not stated)
Result :: > 100 µM

***
Query :: Report TGI for `Cc1cc(C)c(C[C@H]2COC(=O)[C@]2(O)Cc2c(C)cc(C)cc2C)c(C)c1` please.
Result :: 32.1 µM

* * *

Kindly state GI50 for each of the entries shown.
Tested on: COLO 205 colon
METHOD: NCI tumour cell line growth inhibition, 48 h

Query :: Report GI50 for CC1=C(C(=O)Nc2ccc(Cl)c(Cl)c2)C(c2cccc(Oc3ccccc3)c2)NC(=O)N1 (stereo unspecified) please.
Result :: 12.6 µM

Query :: Param item: `O=S(=O)(Nc1ccc(F)cc1F)c1ccc(-c2cnc(C3CC3)o2)cc1`
Result :: 0.767 µM

Query :: Param item: `CCn1c(=O)c2c(=O)c3c4c(oc3oc2c2ccccc21)C(=O)c1ccccc1C4=O`
Result :: > 100 µM

Give GI50 for each listed item.
1. C1=C\COCc2cc(ccc2OCCN2CCCC2)Nc2nccc(n2)-c2cccc(c2)COC/1
2. CCN1C(=O)N(CC)C2C1NN=c1s/c(=C3\C(=O)N(CC(C)(C)C)c4ccccc43)c(=O)n12 (stereo unspecified)
3. CSc1ccc2c(c1)C(=O)c1c-2n(CCCBr)c(=O)c2cc([N+](=O)[O-])ccc12

Result ::
1.35 µM
3.31 µM
17.8 µM

* * *

Test system: COLO 205 colon
METHOD: NCI tumour cell line growth inhibition, 48 h
EXPERIMENTAL ENDPOINT: TGI

Query :: Report TGI for `COc1cc(C=O)c(-c2cc(OC)c(OC)cc2C=O)cc1OC` please.
Result :: > 100 µM

Give TGI for each listed item.
1. CC(C)CC(NC(=O)C(CI)Cc1ccccc1)C(=O)Nc1ccccc1 (configuration not stated)
2. O=C1NC(=O)C(c2cccc([N+](=O)[O-])c2)=C1Nc1cc(Cl)c(O)c(Cl)c1
3. COC(=O)C1(C(=O)OC)C/C(C)=C(/C)SCCCS1
4. CC(=O)O[C@H]1CCC2[C@@H]3CCC4Nc5oncc5C[C@]4(C)C3CC[C@@]21C (some centres not stated)
5. COc1cccc2cc(C(=O)O)c(=O)oc12
6. Oc1cc(O)cc(-c2nc3cc(F)ccc3s2)c1
7. CC(C)C(=O)NS(=O)(=O)c1ccccc1

Result ::
> 100 µM
> 25 µM
> 100 µM
> 10 µM
> 100 µM
40 µM
> 100 µM

Give TGI for each listed item.
1. O=C1NC(=NCCc2cccc(Cl)c2)S/C1=C\c1ccc2ncccc2c1
2. CCCCCCOc1ccc(Nc2c(O)c3c(c(O)c2Cl)C(=O)C=CC3=O)cc1
3. O=C(O/C=C\OC1CCCC1(c1ccccc1)c1ccccc1)c1ccccc1 (configuration not stated)
4. Cc1cc(C)c(C[C@H]2COC(=O)[C@]2(O)Cc2c(C)cc(C)cc2C)c(C)c1
5. O=C1NC(=O)C(c2c[nH]c3ccccc23)=C1c1cn(C(c2ccccc2)(c2ccccc2)c2ccccc2)cn1
6. COc1cc2c(OC)cc1CSCc1sc(C)c(c1Br)CSC2

Result ::
["> 25 µM", "4.15 µM", "31.5 µM", "40.3 µM", "15 µM", "> 100 µM"]

* * *

Test system: CAKI-1 renal
METHOD: NCI tumour cell line growth inhibition, 48 h
EXPERIMENTAL ENDPOINT: TGI (µM)
Numbers only, in µM.

Below, each entry is followed by its recorded TGI result.
Query :: Report TGI for `O=C(CCc1cc(O)ccc1O)OCCc1ccccc1` please.
Result :: 27.2

Query :: Param item: `O=C(Nc1ccc(F)cc1)c1cc(S(=O)(=O)Nc2nc3ccccc3o2)c(SCc2ccccc2)cc1Cl`
Result :: 37.7

Query :: Param item: `C=C1C(=O)O[C@H]2[C@H]1CC/C(COC(=O)/C=C\C(=O)NCc1ccc(Cn3c(=O)sn(CCCC)c3=O)cc1)=C\CC[C@@]1(C)O[C@@H]21`
Result :: 1.48

Query :: Param item: `CSc1ccc2c(c1)C(=O)c1c-2n(CCCBr)c(=O)c2cc([N+](=O)[O-])ccc12`
Result :: 8.94

Alright, here's another compound for you.
Query :: Report TGI for `O=C(Oc1cccnc1)c1cc2cc(CCl)ccc2oc1=O` please.
Result :: 35

Data provenance is PubChem BioAssay (NCI).
